Hey, just so you know, these numbers are from paper PMC6115456.

- target.entity: PI3Kα (class I catalytic subunit p110α) (Homo sapiens, UniProt P42336)
- Sequence (P42336 whole entry): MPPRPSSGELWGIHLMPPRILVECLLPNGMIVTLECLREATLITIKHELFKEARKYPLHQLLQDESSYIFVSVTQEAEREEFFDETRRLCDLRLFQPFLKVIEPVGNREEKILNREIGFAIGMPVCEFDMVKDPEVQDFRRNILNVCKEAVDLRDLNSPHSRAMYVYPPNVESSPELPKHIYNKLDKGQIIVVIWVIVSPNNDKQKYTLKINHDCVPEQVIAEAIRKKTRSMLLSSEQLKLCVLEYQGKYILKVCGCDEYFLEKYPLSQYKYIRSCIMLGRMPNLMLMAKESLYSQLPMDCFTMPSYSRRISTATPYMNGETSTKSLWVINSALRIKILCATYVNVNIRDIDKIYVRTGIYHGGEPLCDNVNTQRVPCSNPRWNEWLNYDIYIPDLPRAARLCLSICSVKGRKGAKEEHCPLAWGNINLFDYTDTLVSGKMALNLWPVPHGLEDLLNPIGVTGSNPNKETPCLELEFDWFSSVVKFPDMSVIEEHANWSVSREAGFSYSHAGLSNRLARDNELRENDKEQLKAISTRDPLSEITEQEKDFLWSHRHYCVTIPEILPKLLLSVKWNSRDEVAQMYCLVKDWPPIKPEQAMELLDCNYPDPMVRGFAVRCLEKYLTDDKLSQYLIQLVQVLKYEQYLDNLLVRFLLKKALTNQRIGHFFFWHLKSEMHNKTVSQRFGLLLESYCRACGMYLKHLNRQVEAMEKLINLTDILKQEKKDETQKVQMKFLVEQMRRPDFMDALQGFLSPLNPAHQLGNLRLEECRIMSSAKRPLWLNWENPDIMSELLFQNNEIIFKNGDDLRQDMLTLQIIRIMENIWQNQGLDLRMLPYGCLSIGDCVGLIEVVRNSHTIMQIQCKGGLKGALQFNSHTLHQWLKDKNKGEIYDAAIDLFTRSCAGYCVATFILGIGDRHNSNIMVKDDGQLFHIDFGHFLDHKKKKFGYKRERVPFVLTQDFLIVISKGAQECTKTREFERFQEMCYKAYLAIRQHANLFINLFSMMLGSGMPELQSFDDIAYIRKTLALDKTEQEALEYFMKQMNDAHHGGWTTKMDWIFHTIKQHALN
- Sequence (P27986 2-724 partner): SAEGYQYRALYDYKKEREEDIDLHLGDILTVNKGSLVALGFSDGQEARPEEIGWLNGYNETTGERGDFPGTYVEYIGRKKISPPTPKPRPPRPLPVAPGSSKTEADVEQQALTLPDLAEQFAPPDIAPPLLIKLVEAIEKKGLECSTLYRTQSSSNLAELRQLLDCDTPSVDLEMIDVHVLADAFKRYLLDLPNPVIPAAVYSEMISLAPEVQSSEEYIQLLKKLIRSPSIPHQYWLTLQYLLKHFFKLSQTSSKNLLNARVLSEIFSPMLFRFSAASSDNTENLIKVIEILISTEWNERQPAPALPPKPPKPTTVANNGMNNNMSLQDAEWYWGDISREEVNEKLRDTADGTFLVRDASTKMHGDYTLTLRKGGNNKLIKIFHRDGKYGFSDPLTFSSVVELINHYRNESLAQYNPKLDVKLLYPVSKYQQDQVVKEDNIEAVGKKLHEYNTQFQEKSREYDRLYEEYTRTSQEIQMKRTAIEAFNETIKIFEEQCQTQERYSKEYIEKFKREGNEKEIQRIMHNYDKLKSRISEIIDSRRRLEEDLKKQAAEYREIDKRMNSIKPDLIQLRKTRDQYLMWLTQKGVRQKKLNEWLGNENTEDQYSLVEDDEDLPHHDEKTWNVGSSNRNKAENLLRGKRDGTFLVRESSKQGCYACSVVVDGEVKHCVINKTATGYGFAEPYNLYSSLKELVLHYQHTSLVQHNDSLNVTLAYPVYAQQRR
- assay.info: PI3K ADP-Glo kinase assay (Promega) on purified PI3Kα; also […] inhibition at […] in a recombinant kinase panel
measurement.type: IC50
Note: state the figure and append the unit.

What measured IC50 goes with O=C(/C=C/c1ccc(O)c(O)c1)c1ccc(O)cc1O [butein] ?
6.4 µM
